Please go through the items and note down their apparent KD of MS2 coat protein.
Tested on: MS2 coat protein
experiment: apparent KD of MS2 coat protein; designed switch direction (-1 OFF switch, 1 ON switch): 1; higher = weaker reporter binding
condition.details: Eterna round: R98; input ligand: none
A bare number is not enough; add the unit after it.

Ask: Please give the documented apparent KD of MS2 coat protein of GGUCCAUCAUGAGGAUAUGGCACCUUAUUUGUGCCAGAAGGCAUGUCAAUAGACAUGAGGAUCACCCAUGUAAUAAAUUGGACC [EliMod 3 - Jieux - Same State NG 1]
Reply: 642 nM

Ask: Entry GUAGCAUACCGAGGAUAUUCAUACUGGAAACAGACAUGAGGAUCACCCAUGUGGCGAAAGCCUUGGGAGAAGGCGGAAUGCUAC [EliMod 9 - Jieux - Same State NG 2] needs its apparent KD of MS2 coat protein filled in; supply it.
Reply: 545 nM

Ask: Please give measured apparent KD of MS2 coat protein of the following entry: ACCGGCACUUACAUGAGGAUCACCCAUGUGUGCAAUCGGACACAGGAUAUCCAUGGUAAGUAUCGGGAGAAGGGUGGAAAGAAA [Reustion]
Reply: 142 nM

Ask: Give the reported apparent KD of MS2 coat protein for this sequence. UCGAAGAAGCAAGGAUAUCAAUAUUAGAAAAGAUAAACAUGAGGAUCACCCAUGUAAAUAUGGAGUGAGAAGGUGCAAUAAUUU [JR_SSNG2_Sub098]
Reply: 557 nM

Ask: Assign apparent KD of MS2 coat protein to the following record: CCUGACACUUGAGGAUAUGCUCAGGAAUACUGAGCAGAAGGCAGGGAAACCUGAGGAUCACCCAGGUAAGUCAGGAAUAAUAAA [Same State NG1 - A3C, U17G Submission 2A]
Reply: 62 nM

Ask: Consider the sequence CAACAAUGGUGAGGAUAUGCAAAGGAUCACCUUGUAGAAGGCAUCAGGUAGAAGGUGCAGAGGAUCACCCUGUAAGGAUAUAUC [pwkr2 ssNG1 DX.21] . State its measured apparent KD of MS2 coat protein.
Reply: 176 nM

Ask: Answer with reported apparent KD of MS2 coat protein of CGCUGUCGCGCAGGAUAUGCAUUGGAUUACAAUGCAGAAGGGCGAUUACAUGAGGAUCACCCAUGUGUAGACAGUGAAGAAGAG [SameState #31 NG1]
Reply: 253 nM

Ask: Give recorded apparent KD of MS2 coat protein. UUUACAUGAGGAUCACCCAUGUUUUGAAAGAUUGGUUUAGGUGAGGAUAUACAUGAUAAUGAAUUGUAGAAGGCACUGGGUACA [JR_SSNG3_Sub029]
Reply: 39.3 nM

Ask: Dear colleague, please send me the reported apparent KD of MS2 coat protein for GCCGUAAUAGCAGGAUAUGCUCCGGUUGCUCAUACAUGAGGAUCACCCAUGUCACGUGCGGUGGUGCAGAAGGGUUGAAGCGAU [Ausaso] when you can.
Reply: 465 nM

Ask: Report measured apparent KD of MS2 coat protein; entry is CUCGUUGUCACAGGAUAUGCCGCCGGACAUGAGGAUCACCCAUGUACCCGCUUGAGAAAACUGCGGUAGAAGGGUGACUUAUAA [Erriisin]
Reply: 110 nM

Ask: Write down apparent KD of MS2 coat protein measured for item CGCUGUAAUGCAGGAUAUGCAUUGGAUUACAAUGCAGAAGGGCGAUUACAUGAGGAUCACCCAUGUAUAAACAGUGAAGAAGAG [Hyphema mod 5]
Reply: 51.6 nM

Ask: Return apparent KD of MS2 coat protein for the following sequence: AAGCAAACAUGAGGAUCACCCAUGUAACUGCUUUUGGCGACACAGGAUAUACAGCGACAUUGGCGGUAGAAGGGUGAUUGAAGU [Araisleen]
Reply: 22.2 nM
